# method-summary: photoluminescence quantum yield (fraction); solvent given as SMILES
# measurement-setup: in CCCCCC
photoluminescence quantum yield of 0.4 or higher: rule met. Under 0.4: rule not met.

Worked examples, 4 compounds total:
c1ccc2cc3cc(-c4cc(-c5nccs5)nc(-c5nccs5)c4)ccc3cc2c1    rule not met
CCC1=C(C)C2=C(c3c4ccccc4c(-c4ccccc4)c4ccccc34)c3c(C)c(CC)c(C)n3[B-](F)(F)[N+]2=C1C    rule met
Cc1ccccc1/C(C#N)=C/c1ccc(N(C)C)cc1    rule not met
Cn1cccc1-c1ccc(C#N)cc1    rule met

Would you say `c1ccc(-c2nc3c(c4c2-c2ccccc2CC4)-c2ccccc2CC3)cc1` shows photoluminescence quantum yield at minimum 0.4?
rule not met

Answer whether photoluminescence quantum yield of `C(=C\c1cccnc1)/c1ccc(Nc2ccccc2)cc1` is greater than or equal to 0.4.
rule not met

For this compound, is measured photoluminescence quantum yield 0.4 or higher? `C(#Cc1ccc(-n2c3ccccc3c3ccccc32)cc1)c1ccc(-c2nc(-c3ccc(C#Cc4ccc(-n5c6ccccc6c6ccccc65)cc4)cc3)nc(-c3ccc(C#Cc4ccc(-n5c6ccccc6c6ccccc65)cc4)cc3)n2)cc1`
rule met

Could you tell me if the measured photoluminescence quantum yield of `CCCCCCC1(CCCCCC)c2cc(-c3nc(-c4ccc5c(c4)C(CCCCCC)(CCCCCC)c4cc(-n6c7ccc(C(C)(C)C)cc7c7cc(C(C)(C)C)ccc76)ccc4-5)nc(-c4ccc5c(c4)C(CCCCCC)(CCCCCC)c4cc(-n6c7ccc(C(C)(C)C)cc7c7cc(C(C)(C)C)ccc76)ccc4-5)n3)ccc2-c2ccc(-n3c4ccc(C(C)(C)C)cc4c4cc(C(C)(C)C)ccc43)cc21` reaches 0.4 or more?
rule met

photoluminescence quantum yield >= 0.4 for `CC1=C2C=CC(C)=[N+]2[B-](F)(F)n2cccc21` ?
rule met

Does `O=S(=O)(/N=c1\oc2cccc3c4c(-c5ccccc5)oc5cccc(c(c1-c1ccccc1)c23)c54)C(F)(F)F` have a reported photoluminescence quantum yield of at least 0.4?
rule met

Is reported photoluminescence quantum yield greater than or equal to 0.4 here: `CCN(CC)c1ccc(-c2nc3c(c4c2-c2ccc(C#N)cc2CC4)-c2ccc(C#N)cc2CC3)cc1`
rule not met

Can `CN(C)c1ccc2c(c1)Cc1ccccc1-2` be said to have photoluminescence quantum yield at or above 0.4?
rule not met

---

# method-summary: photoluminescence quantum yield (fraction); solvent given as SMILES
# measurement-setup: in CC#N
measured-endpoint: photoluminescence quantum yield
Lab note: write the figure by itself, no unit.

Recorded photoluminescence quantum yield, per entry:
CNC(=O)[C@H](C)NC(=O)c1cccc2c1C#Cc1c(N)cccc1OCCCO2    0.25
COc1ccc(-c2csc(/C(C#N)=C\Nc3ccc(C#N)cc3)n2)cc1    0.001
COC(=O)C12N=N[C@](C(=O)OC)(C3C4C=CC(C4)C31)[C@@H]1C[C@H]12 (some centres undefined)    0.034

Please examine the following record next.
Answer with the recorded photoluminescence quantum yield of `CC(=O)OC[C@@H]1O[C@H](N2C=CC3=Nc4nc(C)[n+](C)cc4CN3C2=O)[C@@H](O)[C@H]1O` only.
0.89

---

# method-summary: photoluminescence quantum yield (fraction); solvent given as SMILES
# measurement-setup: in ClCCl
measured-endpoint: photoluminescence quantum yield
Answer field: number only, no words.

The examples below pair each entry with its known result.
COc1ccc(-c2c3cc4ccccc4cc3c(-c3ccc(OC)cc3)c3cc4ccccc4cc23)cc1    0.09
CCCCOc1ccc(-c2oc3cc4n(c3c2-c2ccc(OCCCC)cc2)[B-](F)(F)[N+]2=Cc3cc5oc(-c6ccc(OCCCC)cc6)c(-c6ccc(OCCCC)cc6)c5n3[B-](F)(F)[N+]2=C4)cc1    0.43

Now consider a different compound.
Tell me measured photoluminescence quantum yield for `CC1(C)c2ccccc2N(c2ccc(-c3nc(-c4ccccn4)n(-c4ccc(N5c6ccccc6C(C)(C)c6ccccc65)cc4)n3)cc2)c2ccccc21` please.
0.0876
